# system: Tyrosyl-tRNA synthetase, putative (Trypanosoma cruzi (strain CL Brener)) (UniProt Q4DSP6)
# Sequence (Q4DSP6 as listed by the source): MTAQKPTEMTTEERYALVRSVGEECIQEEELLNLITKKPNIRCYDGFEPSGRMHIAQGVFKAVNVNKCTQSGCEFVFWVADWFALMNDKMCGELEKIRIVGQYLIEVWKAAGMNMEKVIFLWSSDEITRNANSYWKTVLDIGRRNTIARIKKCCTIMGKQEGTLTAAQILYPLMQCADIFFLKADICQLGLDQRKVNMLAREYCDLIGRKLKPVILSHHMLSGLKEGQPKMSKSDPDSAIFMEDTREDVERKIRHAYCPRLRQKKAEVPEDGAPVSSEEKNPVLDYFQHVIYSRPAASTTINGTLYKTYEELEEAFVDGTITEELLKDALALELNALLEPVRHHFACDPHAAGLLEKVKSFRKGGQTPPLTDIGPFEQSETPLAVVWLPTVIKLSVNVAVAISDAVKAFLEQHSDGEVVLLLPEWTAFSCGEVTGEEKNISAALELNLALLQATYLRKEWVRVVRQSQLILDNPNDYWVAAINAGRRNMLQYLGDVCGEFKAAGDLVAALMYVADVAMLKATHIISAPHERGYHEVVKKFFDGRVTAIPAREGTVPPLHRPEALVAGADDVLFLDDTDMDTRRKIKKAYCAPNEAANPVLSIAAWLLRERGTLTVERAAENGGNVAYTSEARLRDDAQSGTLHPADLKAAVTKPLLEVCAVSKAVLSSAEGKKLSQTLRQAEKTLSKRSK
# assay_remarks: Trypanosoma cruzi tyrosyl tRNA synthetase (TcYRS) SOP
# Assay type: functional
# Parameters: scale not given: direction of the effect not stated beside the values
# test_conditions: 30 µM
Examples of compounds with documented Percent Effect follow.
Write it as a number; the unit % goes unstated.

stdin: Reported Percent Effect for CC(C)c1nc(CC(=O)N2CCCC(n3cncn3)C2)cs1 (stereo unspecified) : what is it?
stdout: 22.9

stdin: Moving on to the next compound: CCc1cnc2c(c1NCc1ccncc1)c(=O)n(C)c(=O)n2C
stdout: 10

stdin: Moving on to the next compound: CCOc1ncccc1C(=O)N1CCCC1c1c(C)nn(C)c1OC (stereo unspecified)
stdout: 11.8

stdin: Moving on to the next compound: Cc1ncsc1C(=O)N(C)CCc1ccncc1
stdout: 4.88

stdin: Moving on to the next compound: Clc1ccc(-n2cc(CNC3CCc4ncnn4C3)cn2)cc1 (stereo unspecified)
stdout: 10.1

stdin: Moving on to the next compound: CC1CCCN(Cc2coc(-c3cccc(F)c3)n2)C1 (stereo unspecified)
stdout: 2.44
